system-under-test: EGFR del19/T790M/C797S (Homo sapiens, UniProt P00533, C797S/DEL746-750/T790M)
Sequence (P00533 with tags, fused parts or gaps DEL746-750/T790M/C797S): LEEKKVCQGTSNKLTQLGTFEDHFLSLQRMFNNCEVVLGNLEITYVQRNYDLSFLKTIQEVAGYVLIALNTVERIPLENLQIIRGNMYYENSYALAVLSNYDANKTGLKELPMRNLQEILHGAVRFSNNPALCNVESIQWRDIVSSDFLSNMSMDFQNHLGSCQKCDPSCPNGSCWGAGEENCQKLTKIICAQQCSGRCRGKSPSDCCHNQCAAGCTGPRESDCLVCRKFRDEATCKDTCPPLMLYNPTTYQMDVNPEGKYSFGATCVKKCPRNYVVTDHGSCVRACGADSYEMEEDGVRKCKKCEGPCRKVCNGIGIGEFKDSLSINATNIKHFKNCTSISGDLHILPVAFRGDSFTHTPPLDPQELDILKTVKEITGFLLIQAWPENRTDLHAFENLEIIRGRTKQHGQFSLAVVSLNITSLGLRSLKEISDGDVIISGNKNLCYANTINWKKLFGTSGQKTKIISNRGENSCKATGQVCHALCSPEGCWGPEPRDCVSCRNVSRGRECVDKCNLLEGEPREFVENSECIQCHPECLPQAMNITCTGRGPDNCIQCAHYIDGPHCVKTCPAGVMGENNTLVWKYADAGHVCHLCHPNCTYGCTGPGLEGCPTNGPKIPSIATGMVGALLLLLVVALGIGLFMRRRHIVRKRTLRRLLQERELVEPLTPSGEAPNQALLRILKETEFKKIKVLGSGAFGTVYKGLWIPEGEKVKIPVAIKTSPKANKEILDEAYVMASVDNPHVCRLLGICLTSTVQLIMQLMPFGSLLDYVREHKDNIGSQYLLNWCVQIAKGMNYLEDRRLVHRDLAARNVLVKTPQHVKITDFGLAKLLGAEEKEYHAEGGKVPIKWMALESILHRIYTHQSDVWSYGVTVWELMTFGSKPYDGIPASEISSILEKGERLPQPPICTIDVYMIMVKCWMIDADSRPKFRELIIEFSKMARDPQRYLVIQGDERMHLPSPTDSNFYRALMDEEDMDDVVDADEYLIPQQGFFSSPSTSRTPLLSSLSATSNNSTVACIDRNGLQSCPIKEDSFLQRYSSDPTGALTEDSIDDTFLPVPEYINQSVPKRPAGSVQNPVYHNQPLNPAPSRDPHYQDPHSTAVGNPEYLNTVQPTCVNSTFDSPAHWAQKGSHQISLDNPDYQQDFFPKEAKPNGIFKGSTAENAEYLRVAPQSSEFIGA
test: Biochemical EGFR kinase assay (Lance Ultra TR-FRET), triple mutant del19/T790M/C797S
conditions: IC50 del19/T790M/C797S (nM) 100 μM ATP, 100 μM ATP
experimental-readout: IC50 (nM)

>  <chem-smiles>
CC(C)(O)c1cc(-c2cnc(Nc3ccnc(-c4cnn(S(=O)(=O)C5CC5)c4)n3)cc2N[C@H]2CC[C@@H](CO)CC2)ncc1F

>  <system-under-test>
EGFR del19/T790M/C797S (Homo sapiens, UniProt P00533, C797S/DEL746-750/T790M)

>  <IC50 (nM)>
3.2

$$$$

A = C[C@]1(O)CC[C@@H](Nc2cc(Nc3ccnc(-c4cnn(S(=O)(=O)C5CC5)c4)n3)ncc2-c2ccc(CN3CCC(F)(F)CC3)cn2)CC1
B = CN1CCN(Cc2ccnc(-c3cnc(Nc4ccnc(-c5cnn(S(=O)(=O)C6CC6)c5)n4)cc3N[C@H]3CC[C@@](C)(O)CC3)c2)CC1
Problem: Endpoint returns whichever of A and B has the numerically higher IC50. Pick one; state its label.
Result: A

###

system-under-test: EGFR L858R/T790M/C797S (Homo sapiens, UniProt P00533, C797S/L858R/T790M)
Sequence (P00533 25-1210 T790M/C797S/L858R): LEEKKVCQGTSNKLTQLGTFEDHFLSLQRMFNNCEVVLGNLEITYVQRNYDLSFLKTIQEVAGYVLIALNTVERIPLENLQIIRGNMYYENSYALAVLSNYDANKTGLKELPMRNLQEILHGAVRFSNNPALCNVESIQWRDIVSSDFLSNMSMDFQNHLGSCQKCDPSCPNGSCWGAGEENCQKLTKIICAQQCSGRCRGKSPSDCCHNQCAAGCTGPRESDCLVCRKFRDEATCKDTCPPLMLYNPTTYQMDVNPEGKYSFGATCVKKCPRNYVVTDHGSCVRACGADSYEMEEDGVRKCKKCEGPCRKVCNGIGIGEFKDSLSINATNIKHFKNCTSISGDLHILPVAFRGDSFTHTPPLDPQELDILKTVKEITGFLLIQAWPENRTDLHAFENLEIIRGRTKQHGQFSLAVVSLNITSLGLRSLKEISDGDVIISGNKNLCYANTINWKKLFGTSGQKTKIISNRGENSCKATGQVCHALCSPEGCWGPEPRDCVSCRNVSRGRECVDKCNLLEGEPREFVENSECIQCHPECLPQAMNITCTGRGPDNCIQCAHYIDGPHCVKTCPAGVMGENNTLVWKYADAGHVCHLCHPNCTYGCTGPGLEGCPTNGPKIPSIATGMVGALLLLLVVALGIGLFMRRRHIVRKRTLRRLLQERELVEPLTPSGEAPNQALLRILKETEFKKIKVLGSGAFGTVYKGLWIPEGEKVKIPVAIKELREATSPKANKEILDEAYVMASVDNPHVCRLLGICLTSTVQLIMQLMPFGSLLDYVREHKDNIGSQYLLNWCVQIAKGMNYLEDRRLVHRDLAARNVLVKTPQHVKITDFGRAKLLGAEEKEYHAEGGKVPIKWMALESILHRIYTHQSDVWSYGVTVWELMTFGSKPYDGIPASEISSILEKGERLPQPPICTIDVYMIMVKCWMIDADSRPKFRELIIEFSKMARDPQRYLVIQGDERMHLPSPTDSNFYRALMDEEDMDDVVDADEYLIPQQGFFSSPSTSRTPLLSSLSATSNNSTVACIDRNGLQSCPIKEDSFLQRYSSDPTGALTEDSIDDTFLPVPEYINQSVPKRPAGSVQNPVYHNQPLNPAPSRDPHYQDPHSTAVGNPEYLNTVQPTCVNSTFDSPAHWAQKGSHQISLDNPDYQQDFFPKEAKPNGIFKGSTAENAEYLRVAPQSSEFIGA
test: Biochemical EGFR kinase assay (Lance Ultra TR-FRET), triple mutant L858R/T790M/C797S
conditions: IC50 L858R/T790M/C797S, 100 μM ATP
pIC50: −log10 of the molar value.
experimental-readout: pIC50

1 = CC(F)(F)c1ccc(-c2cnc(Nc3ccnc(-c4cnn(S(=O)(=O)C5CC5)c4)n3)cc2N[C@H]2CC[C@@H](C(C)(C)O)CC2)nc1
2 = CC(C)(O)[C@H]1CC[C@@H](Nc2nccc(-c3cnc(Nc4ccnc(-c5cnn(S(=O)(=O)C6CC6)c5)n4)cc3N[C@H]3CC[C@@H](C(C)(C)O)CC3)n2)CC1
3 = CN1CCN(C(=O)c2ccc(-c3cnc(Nc4ccnc(-c5cnn(S(=O)(=O)C6CC6)c5)n4)cc3N[C@H]3CC[C@@H](CO)CC3)nc2)CC1
Problem: Could you please order the items by pIC50, going from the lowest number to the highest? // list labels; follow requested order
Result: 1, 2, 3
(1: 7.95, 2: 8.42, 3: 10.00)

###

system-under-test: EGFR L858R/T790M/C797S (Homo sapiens, UniProt P00533, C797S/L858R/T790M)
test: Biochemical EGFR kinase assay (Lance Ultra TR-FRET), triple mutant L858R/T790M/C797S
conditions: Km ATP; read-out: IC50 L858R/T790M/C797S (nM) Km ATP
experimental-readout: IC50 (nM)

Worked cases, IC50 given:
>  <compound>
CN1CCN(c2ccc(-c3cnc(Nc4ccnc(-c5cnn(S(=O)(=O)C6CC6)c5)n4)cc3N[C@H]3CC[C@@H](CO)CC3)nc2)CC1 [Example 85]

>  <IC50 (nM)>
0.1

$$$$
>  <compound>
Cc1cc(-c2cnc(Nc3ccnc(-c4cnn(S(=O)(=O)C5CC5)c4)n3)cc2N[C@H]2CC[C@@](C)(O)CC2)nnc1C [Example 50]

>  <IC50 (nM)>
0.1

$$$$
>  <compound>
CN1CCN(c2ccc(-c3cnc(Nc4ccnc(-c5cnn(S(=O)(=O)C6CC6)c5)n4)cc3N[C@H]3CC[C@@](C)(O)CC3)nc2)CC1 [Example 83]

>  <IC50 (nM)>
0.2

$$$$
>  <compound>
C[C@]1(O)CC[C@@H](Nc2cc(Nc3ccnc(-c4cnn(S(=O)(=O)C5CC5)c4)n3)ncc2-c2ccccn2)CC1 [Example 35]

>  <IC50 (nM)>
0.2

$$$$
>  <compound>
CC(C)(O)c1ccnc(-c2cnc(Nc3ccnc(-c4cnn(S(=O)(=O)C5CC5)c4)n3)cc2N[C@H]2CC[C@@](C)(O)CC2)c1 [Example 108]

>  <IC50 (nM)>
0.2

$$$$

I = CC(C)Nc1cc(Nc2ccnc(-c3cnn(S(=O)(=O)C4CC4)c3)n2)ncc1-c1cnc(OCCN(C)C)cn1 [Example 122]
II = C[C@]1(O)CC[C@@H](Nc2cc(Nc3ccnc(-c4cnn(S(=O)(=O)C5CC5)c4)n3)ncc2-c2ccc(CN3CCOCC3)cn2)CC1 [Example 32]
III = CN1CCC(Oc2ccc(-c3cnc(Nc4ccnc(-c5cnc6c(c5)CCCO6)n4)cc3N[C@H]3CC[C@@](C)(O)CC3)nc2)CC1 [Example 142]
IV = CN1CCC(Oc2ccc(-c3cnc(Nc4ccnc(-c5cnn(CC(F)F)c5)n4)cc3N[C@H]3CC[C@@H](F)CC3)nc2)CC1 [Example 133]
V = O=S(=O)(C1CC1)n1cc(-c2nccc(Nc3cc(N[C@H]4CC[C@@H](CO)CC4)c(-c4cc(C(F)F)ccn4)cn3)n2)cn1 [Example 77]
Problem: Rank descending by IC50. // list labels; follow requested order
Result: V, IV, II, I, III
(V: 1.1 nM, IV: 0.3 nM, II: 0.2 nM, I: 0.1 nM, III: 0.03 nM)

A = O=S(=O)(C1CC1)n1cc(-c2nccc(Nc3cc(N[C@H]4CC[C@@H](NCCF)CC4)c(-c4ccccn4)cn3)n2)cn1 [Example 36]
B = CN(C)c1ccnc(-c2cnc(Nc3ccnc(-c4cnn(S(=O)(=O)C5CC5)c4)n3)cc2N[C@H]2CC[C@@](C)(O)CC2)n1 [Example 41]
Problem: Between item A and item B , which reported IC50 is smaller? Pick one; state its label.
Result: A
(A: 0.1 nM, B: 0.2 nM)

Reference source for all entries: patent US12258328B2
